Reported kcat/KM values for a set of proteins
# assaySystem: T1, Antp-PCP
# T1 chain: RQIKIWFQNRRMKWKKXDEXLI
The answer is to be given in M⁻¹ s⁻¹; state only the numeric part.

Use these answered entries as a reference point.
INSERT INTO results (protein, propertymeasured, valueunits, quantitativeresult) VALUES
  ('TCPTP (protein) MPTTIEREFEELDTQRRWQPLYLEIRNESHDYPHRVAKFPENRNRNRYRDVSPYDHSRVKLQNAENDYINASLVDIEEAQRSYILTQGPLPNTCCHFWLMVWQQKTKAVVMLNRIVEKESVKCAQYWPTDDQEMLFKETGFSVKLLSEDVKSYYTVHLLQLENINSGETRTISHFHYTTWPDFGVPESPASFLNFLFKVRESGSLNPDHGPAVIHCSAGIGRSGTFSLVDTCLVLMEKGDDINIKQVLLNMRKYRMGLIQTPDQLRFSYMAIIEGAKCIKGDSSIQKRWKELSKEDLSPAFDHSPNKIMTEKYN', 'kcat/KM', 'M⁻¹ s⁻¹', 970),
  ('SHP2 (protein) AEIESRVRELSKLAETTDKVKQGFWEEFETLQQQECKLLYSRKEGQRQENKNKNRYKNILPFDHTRVVLHDGDPNEPVSDYINANIIMPEFETKCNNSKPKKSYIATQGCLQNTVNDFWRMVFQENSRVIVMTTKEVERGKSKCVKYWPDEYALKEYGVMRVRNVKESAAHDYTLRELKLSKVGQGNTERTVWQYHFRTWPDHGVPSDPGGVLDFLEEVHHKQESIMDAGPVVVHCSAGIGRTGTFIVIDILIDIIREKGVDCDIDVPKTIQMVRSQRSGMVQTEAQYRFIYMAVQHYIETLQRR', 'kcat/KM', 'M⁻¹ s⁻¹', 2210),
  ('VHR (protein) MSGSFELSVQDLNDLLSDGSGCYSLPSQPCNEVTPRIYVGNASVAQDIPKLQKLGITHVLNAAEGRSFMHVNTNANFYKDSGITYLGIKANDTQEFNLSAYFERAADFIDQALAQKNGRVLVHCREGYSRSPTLVIAYLMMRQKMDVKSALSIVRQNREIGPNDGFLAQLCQLNDRLAKEGKLKP', 'kcat/KM', 'M⁻¹ s⁻¹', 2030);

Consider the record given below.
Req: I'd like to know its kcat/KM. The protein in question is PTP1B (construct not stated) (protein) MEMEKEFEQIDKSGSWAAIYQDIRHEASDFPCRVAKLPKNKNRNRYRDVSPFDHSRIKLHQEDNDYINASLIKMEEAQRSYILTQGPLPNTCGHFWEMVWEQKSRGVVMLNRVMEKGSLKCAQYWPQKEEKEMIFEDTNLKLTLISEDIKSYYTVRQLELENLTTQETREILHFHYTTWPDFGVPESPASFLNFLFKVRESGSLSPEHGPVVVHCSAGIGRSGTFCLADTCLLLMDKRKDPSSVDIKKVLLEMRKFRMGLIQTADQLRFSYLAVIEGAKFIMGDSSVQDQWKELSHEDLEPPPEHIPPPPRPPKRILEPHN
Resp: 17400
